- test.protocol: Pharmacokinetic assay: active peptide levels in rat plasma after IV injection
- test.conditions: Wistar, rat, plasma, iv, 10 ug/kg
Where no end group is shown, it is not given here.
attribute.measured: half-life (min)
One number for each entry, in min.

Recorded half-life (substance H-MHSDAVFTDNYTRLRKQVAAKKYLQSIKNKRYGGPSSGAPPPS [Agonist P104] ): 2.35
